experiment: Half life in CD-1 mouse liver microsomes at 1 uM after 3 to 60 mins by LC-MS/MS analysis; format: ADME
Rule for this label: Criterion met means t1/2 is less than 8 min; Criterion not met means t1/2 is at least 8 min.

Record excerpt, results attached:
| compound | label_class |
| --- | --- |
| N#Cc1cc2cc(CN3CCC(Nc4ncnc5sc(CC(F)(F)F)cc45)CC3)ccc2n1C[C@@H](O)CO | Criterion not met |
| N#Cc1cc2cc(CN3CCC(Nc4ncnc5sc(CC(F)(F)F)cc45)CC3)c(O)cc2[nH]1 | Criterion met |
| N#Cc1cc2cc(CN3CCC(Nc4ncnc5sc(CC(F)(F)F)cc45)CC3)ccc2n1CC(N)=O | Criterion not met |

Task: Input `Cc1c(CN2CCC(Nc3ncnc4sc(CC(F)(F)F)cc34)CC2)c(O)cc2c1cc(C#N)n2CCO` ; condition: t1/2 strictly below 8 min. Does it hold?
Output: Criterion not met

Task: Input `N#Cc1[nH]c2ccc(CN3CCC(Nc4ncnc5sc(CC(F)(F)F)cc45)CC3)cc2c1F` ; condition: t1/2 strictly below 8 min. Does it hold?
Output: Criterion met

Task: Input `CO[C@@H](CO)Cn1c(C#N)cc2cc(CN3CCC(Nc4ncnc5sc(CC(F)(F)F)cc45)CC3)ccc21` ; condition: t1/2 strictly below 8 min. Does it hold?
Output: Criterion met

Task: Input COCC(O)Cn1c(C#N)cc2cc(CN3CCC(Nc4ncnc5sc(CC(F)(F)F)cc45)CC3)ccc21 (stereo not drawn) ; condition: t1/2 strictly below 8 min. Does it hold?
Output: Criterion met

====

test: Half life in CD-1 mouse liver microsomes at 1 uM after 3 to 60 mins by LC-MS/MS analysis; format: ADME
Rule for this label: y means t1/2 is less than 20 min; n means t1/2 is at least 20 min.

Record excerpt, results attached:
| compound | label_class |
| --- | --- |
| Cc1c(CN2CCC(Nc3ncnc4sc(CC(F)(F)F)cc34)CC2)ccc2c1cc(C#N)n2CCO | n |
| CC(C)OC(CO)Cn1c(C#N)cc2cc(CN3CCC(Nc4ncnc5sc(CC(F)(F)F)cc45)CC3)ccc21 (configuration not stated) | y |
| CCOc1cc2[nH]c(C#N)cc2cc1CN1CCC(Nc2ncnc3sc(CC(F)(F)F)cc23)CC1 | y |
| Cc1c(CN2CCC(Nc3ncnc4sc(CC(F)(F)F)cc34)CC2)ccc2c1cc(C#N)n2CC(N)=O | n |
| COc1cc2c(cc(C#N)n2Cc2cn[nH]c2)c(C)c1CN1CCC(Nc2ncnc3sc(CC(F)(F)F)cc23)CC1 | n |

Task: Input `Cc1c(CN2CCC(Nc3ncnc4sc(CC(F)(F)F)cc34)CC2)c(O)cc2c1cc(C#N)n2Cc1cn[nH]c1` ; condition: t1/2 strictly below 20 min. Does it hold?
Output: n

Task: Input `N#Cc1cc2c(Cl)c(CN3CCC(Nc4ncnc5sc(CC(F)(F)F)cc45)CC3)ccc2[nH]1` ; condition: t1/2 strictly below 20 min. Does it hold?
Output: n

Task: Input `COc1cc2[nH]c(C#N)cc2cc1CN1CCC(Nc2ncnc3sc(CC(F)(F)F)cc23)CC1` ; condition: t1/2 strictly below 20 min. Does it hold?
Output: y

Task: Input `Cc1c(C#N)[nH]c2ccc(CN3CCC(Nc4ncnc5sc(CC(F)(F)F)cc45)CC3)cc12` ; condition: t1/2 strictly below 20 min. Does it hold?
Output: y

Task: Input `N#Cc1cc2cc(CN3CCC(Nc4ncnc5sc(CC(F)(F)F)cc45)CC3)ccc2n1C[C@H](O)CO` ; condition: t1/2 strictly below 20 min. Does it hold?
Output: n

Task: Input `COc1cc2[nH]c(C#N)cc2c(C)c1CN1CCC(Nc2ncnc3sc(CC(F)(F)F)cc23)CC1` ; condition: t1/2 strictly below 20 min. Does it hold?
Output: n

Task: Input `N#Cc1cc2cc(CN3CCC(Nc4ncnc5sc(CC(F)(F)F)cc45)CC3)ccc2n1Cc1c[nH]nn1` ; condition: t1/2 strictly below 20 min. Does it hold?
Output: y

Task: Input `CO[C@H](CO)Cn1c(C#N)cc2cc(CN3CCC(Nc4ncnc5sc(CC(F)(F)F)cc45)CC3)ccc21` ; condition: t1/2 strictly below 20 min. Does it hold?
Output: y

Task: Input `COc1cc2c(cc1CN1CCC(Nc3ncnc4sc(CC(F)(F)F)cc34)CC1)cc(C#N)n2Cc1cn[nH]c1` ; condition: t1/2 strictly below 20 min. Does it hold?
Output: n

Task: Input N#Cc1cc2cc(CN3CCC(Nc4ncnc5sc(CC(F)(F)F)cc45)CC3)ccc2n1CC(O)CO (racemic) ; condition: t1/2 strictly below 20 min. Does it hold?
Output: n

Task: Input `N#Cc1[nH]c2ccc(CN3CCC(Nc4ncnc5sc(CC(F)(F)F)cc45)CC3)cc2c1N` ; condition: t1/2 strictly below 20 min. Does it hold?
Output: n

Task: Input `COc1cc2c(cc(C#N)n2Cc2c[nH]nn2)c(C)c1CN1CCC(Nc2ncnc3sc(CC(F)(F)F)cc23)CC1` ; condition: t1/2 strictly below 20 min. Does it hold?
Output: n

====

Below: a set of entries, each annotated with reported Cmax.
tested on: Mus musculus; test: Cmax in C57BL/6 mouse plasma at 30 mg/kg, po after 24 hrs by LC-MS/MS analysis; format: ADME, organism-based; design: dose 30 mg/kg, route oral; conditions: in vivo
Kindly report the value followed by its unit.

Example results:
| smiles_structure | system | endpoint_label | data_value |
| --- | --- | --- | --- |
| COc1cc2[nH]c(C#N)cc2c(C)c1CN1CCC(Nc2ncnc3sc(CC(F)(F)F)cc23)CC1 | Mus musculus | Cmax | 2113 ng/mL |
| N#Cc1cc2cc(CN3CCC(Nc4ncnc5sc(CC(F)(F)F)cc45)CC3)ccc2[nH]1 | Mus musculus | Cmax | 1516 ng/mL |

Form: molecule = `Cc1c(CN2CCC(Nc3ncnc4sc(CC(F)(F)F)cc34)CC2)c(O)cc2[nH]c(C#N)cc12` ; Cmax = 649 ng/mL

Form: molecule = `N#Cc1cc2cc(CN3CCC(Nc4ncnc5sc(CC(F)(F)F)cc45)CC3)c(O)cc2n1Cc1cn[nH]c1` ; Cmax = 4572 ng/mL

====

Below: a set of entries, each annotated with reported AUC.
test system: Mus musculus; test: AUC in C57BL/6 mouse at 30 mg/kg, po after 24 hrs by LC-MS/MS analysis; format: ADME, organism-based; design: time < 24 hr, dose 30 mg/kg, route oral; settings: in vivo
Answer format: numeric, ng·h/mL implied, no suffix.

| smiles_structure | AUC, ng·h/mL |
| --- | --- |
| N#Cc1cc2cc(CN3CCC(Nc4ncnc5sc(CC(F)(F)F)cc45)CC3)ccc2[nH]1 | 7509 |

Form: compound = `Cc1c(CN2CCC(Nc3ncnc4sc(CC(F)(F)F)cc34)CC2)c(O)cc2[nH]c(C#N)cc12` ; AUC = 3846

Form: compound = `N#Cc1cc2cc(CN3CCC(Nc4ncnc5sc(CC(F)(F)F)cc45)CC3)c(O)cc2n1Cc1cn[nH]c1` ; AUC = 18090

Form: compound = `COc1cc2[nH]c(C#N)cc2c(C)c1CN1CCC(Nc2ncnc3sc(CC(F)(F)F)cc23)CC1` ; AUC = 8717

====

test: Growth inhibition of MLL-AF9 transformed mouse bone marrow cells after 7 days by MTT assay; type: functional; conditions: Bone marrow cell, 168 h
endpoint_label: GI50 (nM)
Answer format: numeric, nM implied, no suffix.

Form: compound = CC(C)OC(CO)Cn1c(C#N)cc2cc(CN3CCC(Nc4ncnc5sc(CC(F)(F)F)cc45)CC3)ccc21 (stereo not given) ; GI50 = 180

Form: compound = `Cc1c(CN2CCC(Nc3ncnc4sc(CC(F)(F)F)cc34)CC2)c(O)cc2c1cc(C#N)n2Cc1cn[nH]c1` ; GI50 = 270

Form: compound = `N#Cc1cc2cc(CN3CCC(Nc4ncnc5sc(CC(F)(F)F)cc45)CC3)ccc2n1Cc1cn[nH]c1` ; GI50 = 260

Form: compound = `COc1cc2[nH]c(C#N)cc2cc1CN1CCC(Nc2ncnc3sc(CC(F)(F)F)cc23)CC1` ; GI50 = 340

Form: compound = `COc1cc2c(cc1CN1CCC(Nc3ncnc4sc(CC(F)(F)F)cc34)CC1)cc(C#N)n2Cc1cn[nH]c1` ; GI50 = 290

Form: compound = `N#Cc1cc2cc(CN3CCC(Nc4ncnc5sc(CC(F)(F)F)cc45)CC3)c(O)cc2n1Cc1cn[nH]c1` ; GI50 = 83

Form: compound = `COc1cc2c(cc(C#N)n2Cc2cn[nH]c2)c(C)c1CN1CCC(Nc2ncnc3sc(CC(F)(F)F)cc23)CC1` ; GI50 = 180

Form: compound = `CCOc1cc2[nH]c(C#N)cc2cc1CN1CCC(Nc2ncnc3sc(CC(F)(F)F)cc23)CC1` ; GI50 = 450

Form: compound = `N#Cc1cc2cc(CN3CCC(Nc4ncnc5sc(CC(F)(F)F)cc45)CC3)ccc2n1Cc1c[nH]nn1` ; GI50 = 330

Form: compound = `CO[C@@H](CO)Cn1c(C#N)cc2cc(CN3CCC(Nc4ncnc5sc(CC(F)(F)F)cc45)CC3)ccc21` ; GI50 = 360

Reference source: ChEMBL document CHEMBL3779881
